assay: Inhibition of Dengue virus serotype-2 NS2B-NS3 protease using 2-Abz-Nle-Lys-Arg-Arg-Ser-(3-NO2)-Tyr-NH2 as substrate preincubated with protein for 15 mins followed by substrate addition measured for 15 mins by FRET assay; set-up: species or system dengue virus type 2
Quick list: IC50 per entry.
Outcome measure: IC50 (nM)

Record smiles | Outcome measure | Unit descriptor | Measured number
N=C(N)NCCC[C@H](NC(=O)c1cncs1)C(=O)N[C@@H](CCCCN)C(=O)N[C@@H](C(N)=O)c1ccc(OCc2ccccc2)cc1 | IC50 | nM | 304
CC(C)(C)c1ccc(COc2ccc([C@@H](NC(=O)[C@H](CCCCN)NC(=O)[C@H](CCCNC(=N)N)NC(=O)c3ccccc3)C(N)=O)cc2)cc1 | IC50 | nM | 173
COc1cccc(COc2ccc([C@@H](NC(=O)[C@H](CCCCN)NC(=O)[C@H](CCCNC(=N)N)NC(=O)c3cccs3)C(N)=O)cc2)c1 | IC50 | nM | 68
N=C(N)NCCC[C@H](NC(=O)c1cc(-c2ccccc2)cs1)C(=O)N[C@@H](CCCCN)C(=O)N[C@@H](C(N)=O)c1ccc(OCc2c(Cl)cccc2Cl)cc1 | IC50 | nM | 129
N=C(N)NCCC[C@H](NC(=O)c1cccc(F)c1)C(=O)N[C@@H](CCCCN)C(=O)N[C@@H](C(N)=O)c1ccc(OCc2ccccc2)cc1 | IC50 | nM | 466
N=C(N)NCCC[C@H](NC(=O)c1ccccc1)C(=O)N[C@@H](CCCCN)C(=O)N[C@@H](C(N)=O)c1ccc(OCc2ccccc2Cl)cc1 | IC50 | nM | 321
N=C(N)NCCC[C@H](NC(=O)c1ccco1)C(=O)N[C@@H](CCCCN)C(=O)N[C@@H](C(N)=O)c1ccc(OCc2ccccc2)cc1 | IC50 | nM | 479
N=C(N)NCCC[C@H](NC(=O)c1cc2sccc2s1)C(=O)N[C@@H](CCCCN)C(=O)N[C@@H](C(N)=O)c1ccc(OCc2c(Cl)cccc2Cl)cc1 | IC50 | nM | 158
N=C(N)NCCC[C@H](NC(=O)c1ccc(F)cc1)C(=O)N[C@@H](CCCCN)C(=O)N[C@@H](C(N)=O)c1ccc(OCc2ccccc2)cc1 | IC50 | nM | 639
N=C(N)NCCC[C@H](NC(=O)c1nccs1)C(=O)N[C@@H](CCCCN)C(=O)N[C@@H](C(N)=O)c1ccc(OCc2ccc(C(F)(F)F)cc2)cc1 | IC50 | nM | 18
N=C(N)NCCC[C@H](NC(=O)c1ccccc1)C(=O)N[C@@H](CCCCN)C(=O)N[C@@H](C(N)=O)c1ccc(OCc2ccccc2Br)cc1 | IC50 | nM | 366
N=C(N)NCCC[C@H](NC(=O)c1cc2sccc2s1)C(=O)N[C@@H](CCCCN)C(=O)N[C@@H](C(N)=O)c1ccc(OCc2ccc(Cl)cc2)cc1 | IC50 | nM | 170
N=C(N)NCCC[C@H](NC(=O)c1cc2ccccc2s1)C(=O)N[C@@H](CCCCN)C(=O)N[C@@H](C(N)=O)c1ccc(OCc2ccccc2C(F)(F)F)cc1 | IC50 | nM | 243
N=C(N)NCCC[C@H](NC(=O)c1sccc1Cl)C(=O)N[C@@H](CCCCN)C(=O)N[C@@H](C(N)=O)c1ccc(OCc2ccccc2)cc1 | IC50 | nM | 194
N=C(N)NCCC[C@H](NC(=O)c1ccccc1)C(=O)N[C@@H](CCCCN)C(=O)N[C@@H](C(N)=O)c1ccc(OCc2ccc(C(F)(F)F)cc2)cc1 | IC50 | nM | 69
N=C(N)NCCC[C@H](NC(=O)c1cccs1)C(=O)N[C@@H](CCCCN)C(=O)N[C@@H](C(N)=O)c1ccc(OCc2ccc(F)cc2)cc1 | IC50 | nM | 61
N=C(N)NCCC[C@H](NC(=O)c1cc2ccsc2s1)C(=O)N[C@@H](CCCCN)C(=O)N[C@@H](C(N)=O)c1ccc(OCc2ccccc2)cc1 | IC50 | nM | 505
N=C(N)NCCC[C@H](NC(=O)c1ccccc1)C(=O)N[C@@H](CCCCN)C(=O)N[C@@H](C(N)=O)c1ccc(OCc2ccccc2)cc1 | IC50 | nM | 367
N=C(N)NCCC[C@H](NC(=O)c1ccccc1)C(=O)N[C@@H](CCCCN)C(=O)N[C@@H](C(N)=O)c1ccc(OCc2ccc(F)cc2)cc1 | IC50 | nM | 196
N=C(N)NCCC[C@H](NC(=O)c1cc2ccccc2s1)C(=O)N[C@@H](CCCCN)C(=O)N[C@@H](C(N)=O)c1ccc(OCc2c(Cl)cccc2Cl)cc1 | IC50 | nM | 183
CC(C)(C)c1ccc(COc2ccc([C@@H](NC(=O)[C@H](CCCCN)NC(=O)[C@H](CCCNC(=N)N)NC(=O)c3ccc(Cl)s3)C(N)=O)cc2)cc1 | IC50 | nM | 130
N=C(N)NCCC[C@H](NC(=O)c1scc2c1OCCO2)C(=O)N[C@@H](CCCCN)C(=O)N[C@@H](C(N)=O)c1ccc(OCc2ccccc2)cc1 | IC50 | nM | 194
N=C(N)NCCC[C@H](NC(=O)c1cscn1)C(=O)N[C@@H](CCCCN)C(=O)N[C@@H](C(N)=O)c1ccc(OCc2ccccc2)cc1 | IC50 | nM | 173
N=C(N)NCCC[C@H](NC(=O)c1cccs1)C(=O)N[C@@H](CCCCN)C(=O)N[C@@H](C(N)=O)c1ccc(OCc2ccc(Cl)c(Cl)c2)cc1 | IC50 | nM | 79
